Assay: NCI Yeast Anticancer Drug Screen. Data for the sgs1 mgt1 strain (AID 161);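 further: 0% = growth of cultures given vehicle only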
Settings: S. cerevisiae sgs1 mgt1 strain, at 50.0 µM, active compounds read high
About 79,000 compounds went through this panel and 15% of them were active in at least one assay; those are over-represented in the sample as a whole.

| molecule | growth inhibition (%) |
| --- | --- |
| COc1cc(C(=O)O)c(Br)c(OC)c1OC | 2.55 |
| COc1ccc(/C(Cl)=C(\C=O)c2ccc(Cl)c(Cl)c2)cc1OC | 27.5 |
| CCOC1NC(=O)Oc2ccccc21 (stereo not drawn) | 8.1 |
| O=C(N/N=C(\C1=Nc2ccc(Cl)cc2NC1O)C(O)/C=C/c1ccccc1)c1ccncc1 (stereo not drawn) | -8.8 |
| CC(C)(C)OC(=O)NC(C)(C)C(=O)NCCC(=O)O | -1.8 |
| COC1=C(NCCc2ccccc2)C(=O)C(OC)=C(NCCc2ccccc2)C1=O | 18.9 |
| Nc1ncnc2c1ncn2C1OC(CSCc2ccc(Cl)cc2)C(O)C1O (stereo not drawn) | 15.4 |
| O=C(O)CNc1ccccc1.[Cu+2] | -51.5 |
| COC(=O)C(NC(=O)c1ccccc1)C(C)=O (stereo not drawn) | -3.4 |
| COC(=O)c1c2c(cc3c1CC1(Cc4cc5c(cc4C1)CCCC5)C3)CCCC2 | -21.9 |
| COc1cccc(/C=C/c2cc3c(cc2Br)OCO3)c1 | 2.55 |
| CCN(CC)CCOC(=O)c1ccc(N=NC2Sc3nc4ccccc4n3C2=O)cc1 (stereo not drawn) | 15.9 |
| O=C(CCCSCCCC(=O)N/N=C/c1ccccc1O)N/N=C\c1ccccc1O | 4.95 |
| C1=NCCN=Cc2ccccc2O/N=N/Oc2ccccc21 | -0.85 |
| C[S+](C)c1ccc(Cl)cc1 | -21.2 |
| CC(C)NP(=O)(OC1CC(C)(C)N(O)C(C)(C)C1)OC1CC(C)(C)N(O)C(C)(C)C1 | 13.4 |
| Cc1cc(C(=O)C=[N+]=[N-])c(CN2C(=O)c3ccccc3C2=O)c(=O)n1C | -3.4 |
| O=C(/C=C/c1ccc(OCCCCCCCCCCOc2ccc(/C=C/C(=O)c3ccc(Cl)cc3)cc2)cc1)c1ccc(Cl)cc1 | -15.3 |
| COc1ccc(CC2c3cc(OC)c(OC)cc3C=CN2C)cc1OC (stereo not drawn) | 24.1 |
| CCCC(=O)N[C@H]1C[C@H]2CC[C@@]1(C)C2(C)C | -15.1 |
| O=C(c1ccccc1)C1C=CC=CN1Cc1ccccc1S(=O)(=O)O (stereo not drawn) | -3.95 |
| CCCCCCCCCCCCSC(=O)Nc1ccc(C(=O)OCC)cc1 | 12.7 |
| O=C(Nc1cc(Cl)ccc1Cl)c1ccc(Cl)cc1 | 4.45 |

====

Assay: NCI Yeast Anticancer Drug Screen. Data for the bub3 strain (AID 167)
Conditions: S. cerevisiae bub3 mutant strain, at 50.0 µM, active compounds read high
This is part of a sample that, as a whole, favours compounds with a hit. Of some 79,000 tested, about 15% had one in any assay. Where a SMILES comes first, the peptide text is derived from it. The star is where a group is joined. ONp = O=[N+]([O-])c1ccc(O*)cc1; Tos = Cc1ccc(S(=O)(=O)*)cc1
Tick 1 if growth inhibition is -10% or greater. Tick 0 if growth inhibition is less than -10%.

| molecule | class_label |
| --- | --- |
| O=C1c2ccccc2C(=O)N1CC(O)CCl (stereo unspecified) | 0 |
| Cc1ccc(S(=O)(=O)NCC(=O)NCC(=O)Oc2ccc([N+](=O)[O-])cc2)cc1 (Tos-Gly-Gly-ONp) | 1 |
| O=C1NC(=O)C(c2ccccc2)(C2CCOCC2)N1 (stereo unspecified) | 1 |
| COC(=O)CC1(C)[C@H](O)[C@H]2OC(C)(C)O[C@H]2[C@@H]1O (stereo partly specified) | 1 |
| N#CC1CCCCCC1 | 1 |
| O=C1OCCC1n1cc(F)c(=O)[nH]c1=O (stereo unspecified) | 0 |

====

Test: NCI Yeast Anticancer Drug Screen. Data for the sgs1 mgt1 strain (AID 161);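 further: 0% = growth of cultures given vehicle only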
Conditions: S. cerevisiae sgs1 mgt1 strain, at 50.0 µM, active compounds read high
The panel holds about 79,000 compounds, 15% with a hit somewhere; the sample as a whole holds those more often.
# growth inhibition values compiled below
quantity_name: growth inhibition (%)

| molecule | data_value |
| --- | --- |
| COc1cc(/C=C/Cc2cc3c(cc2OCCO)OCO3)cc(OC)c1OC | 7.6 |
| O=C(O)C=C1CCCCC1 | 20 |
| C(=C\c1cccs1)/c1csnn1 | 3.45 |
| OC(C1=NNC(C(O)c2ccccc2)=NN1)c1ccccc1 (stereo not drawn) | 22 |
| CSC(=NNC(N)=O)SC | 1.2 |
| Cc1cccc2c(CC(N)C(=O)O)c[nH]c12 (stereo not drawn) | -18.9 |
| CCCCCCC(NC(C)=O)C(=O)O (stereo not drawn) | 13.9 |
| CCOC(=O)C1=C(C)NC(C)=C(C(=O)OCC)C1C | 4.5 |
| CCCC(CNC(C)=O)(c1ccccc1)C1CCCCC1 (stereo not drawn) | 3.15 |
| O=C(O)C(C(=O)O)C(c1cccc([N+](=O)[O-])c1)C(c1ccccc1)[N+](=O)[O-] (stereo not drawn) | 45.5 |
| CCC(=O)Oc1ccc(C(=O)O)cc1 | -12.1 |
| CCOC(=O)CN(C)C#N | -44 |
| COC(=O)C1CCCCC1C(=O)OC (stereo not drawn) | 0.85 |

====

Experiment: NCI Yeast Anticancer Drug Screen. Data for the bub3 strain (AID 167)
Conditions: S. cerevisiae bub3 mutant strain, at 50.0 µM
Method: Growth inhibition of yeast strains with defined genetic alterations is measured as a screen for potential anti-cancer activity. Selected strains with alterations in DNA damage repair or cell cycle control were exposed to compounds and growth inhibition was measured relative to vehicle treated controls. The strain used in this assay is bub3
About 79,000 compounds went through this panel and 15% of them were active in at least one assay; those are over-represented in the sample as a whole. The source made the active and inactive calls. No stated cut-off is given here; in the data, active means growth inhibition above about 70%; inactive means the rest.
Possible outcomes: class 1 = active, class 0 = inactive

| molecule | class_label |
| --- | --- |
| CC1=C(O)C(=O)C2C(=O)C1C(C)C2c1ccccc1 (stereo not given) | class 0 |
| CCn1cc(C(=O)O)c(=O)c2ccc(-c3ccncc3)cc21 | class 0 |
| c1ccc2nn(C3CCCCO3)nc2c1 (stereo not given) | class 0 |
| CCn1nnc2c(C(N)=O)ncn2c1=O | class 0 |
| CC1=CC(=O)C(=CN2C(=O)/C(=C\c3cccnc3)NC2=S)C(=O)O1 | class 0 |
| O=C(O)COc1c(Cl)cc(Cl)cc1Cl | class 0 |
| COc1cccc(N2C(=O)[C@H]3[C@H]4CC(C(C)(C)C)CC[C@H]4c4c([nH]c5ccccc45)[C@H]3C2=O)c1 (stereo not given in full) | class 0 |
| Cc1ccc(Cl)cc1NC(=O)CCc1ccccc1 | class 0 |
| CSc1nc2ccc(N=Cc3ccccc3O)cc2s1 | class 0 |
| O=C1c2ccccc2C(=Cc2cccnc2)c2ccccc21 | class 0 |
| CC(=O)Nc1ccc(S(=O)(=O)CCN2C(=O)c3ccccc3C2=O)cc1 | class 0 |
| Clc1ccc(C2OCCO2)cc1 | class 0 |
| O=C1CC2C(O)OC(O)C(C1)N2C(=O)OCC(Cl)(Cl)Cl (stereo not given) | class 0 |
| CC(=NCCN=C(C)c1ccccc1O)c1ccccc1O.[Cu] | class 0 |
| O=COCCOC=O | class 0 |
| Cc1nc(N)c2nc(SC(C)C)c(N)nc2n1 | class 0 |
| CCCCCCCCCCCCCC(=O)CC | class 0 |
| O=C1c2ccccc2C(=O)N1/N=N/N1C(=O)c2ccccc2C1=O | class 1 |
| COc1ccc(NC(=O)CC(=O)n2nc(C)c(N=Nc3ccccc3C(=O)O)c2C)cc1 | class 0 |
| CC(=O)NNc1nc(C)c(C(/C=C/c2ccc(Cl)cc2)=N\NS(=O)(=O)c2ccc(C)cc2)s1 | class 0 |
| Cc1cc(C)c(C(=O)CC(C)C)c(C)c1 | class 0 |
| CCCCCCCCC(Br)C(Br)CCCCCCCC(=O)NCCCOC (stereo not given) | class 0 |
| COc1cc(NCCCN(CC(C)C)CC(C)C)c2ncccc2c1Cl | class 0 |
| CCOC(=O)C1=C(C)c2ccccc2OC1C(=O)O (stereo not given) | class 0 |
| O=C(O)c1ccccc1C(=O)CCC(=O)c1ccccc1C(=O)O | class 0 |

====

Assay: NCI Yeast Anticancer Drug Screen. Data for the cln2 rad14 strain (AID 165);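 further: 0% = growth equal to vehicle treated cultures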
Settings: S. cerevisiae cln2 rad14 strain, at 50.0 µM, active compounds read high
The panel holds about 79,000 compounds, 15% with a hit somewhere; the sample as a whole holds those more often.

| compound | unit_string | growth inhibition |
| --- | --- | --- |
| CCCCCO/C=C/CN1CCOCC1 | % | -8.5 |
| CN=c1ncc2nc(-c3ccccc3)c(-c3ccccc3)n(C)c-2n1 | % | -42 |
| Cc1ccc(N(C(=O)Nc2ccccc2)C2=NCC(C)S2)cc1C (stereo not drawn) | % | 2.5 |
| CCOC1OC(C2COC(=O)O2)C(O)C1O (stereo not drawn) | % | -71.2 |
| CN(C)S(=O)(=O)C(C(=O)Nc1ccccc1)c1ccccc1 (stereo not drawn) | % | -34.7 |
| CC(C)(C)OC(=O)NC1CCC(C(C)(C)C)CC1 (stereo not drawn) | % | 8.65 |
| N=c1c2ccccc2nc2oc3ccccc3n12 | % | 13.2 |
| O=C(Cc1ccccc1C(=O)O)c1ccccc1 | % | -24.4 |
| Nc1ncnc2c1ncn2C1C=COC(CO)C1O (stereo not drawn) | % | 2.5 |
| CC1(C)OC(=O)C(C(N)=O)C1c1ccc(Cl)cc1 (stereo not drawn) | % | -3 |
| CCc1ccc(NC(=S)NC(=O)c2ccccc2OC)cc1 | % | 21.1 |
| O=C(CCCCCCCCC(=O)OCC1OC(n2cnc3c(=O)[nH]cnc32)C(O)C1O)OCC1OC(n2cnc3c(=O)[nH]cnc32)C(O)C1O (stereo not drawn) | % | -8.3 |
| [O-][n+]1ccncc1Cl | % | 0.55 |
| Cc1ccc(N=C=C(c2ccc(Cl)cc2)c2ccc(Cl)cc2)cc1 | % | 60.2 |
| Nc1ccc(/C(=N\O)c2ccccc2)cc1 | % | 0.8 |
| N#Cc1c(N2CCCC2)ncn(Cc2ccccc2)c1=S | % | -25.1 |
| CN(C)c1ccc(C(=O)C2CCCCC2)cc1 | % | -4.8 |
| Ic1ccccc1/C=C/c1ccccn1 | % | -54.6 |
| CS/C(=N\S(=O)(=O)c1cc(C)c(Cl)cc1Cl)NNc1cnc2ccccc2n1 | % | 11.9 |
| CCOC(=O)C(=O)C1CC(c2ccccc2)=NNC1=O (stereo not drawn) | % | 23.1 |
| CNc1ncnc2c1c(C(N)=S)cn2C1OC(CO)C(O)C1O (stereo not drawn) | % | 2.2 |
| COc1ccc(C(O)c2cc(C(F)(F)F)cc(C(F)(F)F)c2)cc1OC (stereo not drawn) | % | 8.2 |
| C[OH2+].[Cl][Cu+].[Cl][Cu+].[NH-]CCC([OH2+])CC[NH-] | % | -57.5 |
| CCc1ccc([OH2+])c(C(=O)[O-])c1.CCc1ccc([OH2+])c(C(=O)[O-])c1.CCc1ccc([OH2+])c(C(=O)[O-])c1.CCc1ccc([OH2+])c(C(=O)[O-])c1.[Cu+2].[Cu+2] | % | 29.3 |
| OC1C2CCC(C2)C1CN1CCOCC1 (stereo not drawn) | % | 1.85 |
| CC1=C(C(=O)Nc2ccccc2C)C(c2ccc(C3C(C(=O)Nc4ccccc4C)=CNC=C3C(=O)Nc3ccccc3C)cc2)C(C(=O)Nc2ccccc2C)=C(C)N1 | % | 21 |
| O=[N+]([O-])C1CC(O)C(O)CC1c1ccc2c(c1)OCO2 (stereo not drawn) | % | 3.05 |
| S=C(Nc1cccc2ccccc12)N1CCCCC1 | % | 18.1 |
| Clc1ccc(CSc2cnnc(SCc3ccc(Cl)c(Cl)c3)c2SCc2ccc(Cl)c(Cl)c2)cc1Cl | % | -5.9 |
| CCSc1sc(=Nc2ccc(N=c3sc(C)c(SC)s3)cc2)sc1-c1ccc(C)cc1 | % | -39.1 |
| COc1ccc(N2C(=O)CSC2=S)cc1 | % | -9.15 |
| COc1ccccc1NC(=O)Oc1ccc(C#N)cc1 | % | -1.8 |
| COC(=O)CNC(=O)C(Cc1ccccc1)NC(=O)OCc1ccccc1 (stereo not drawn) | % | 1.9 |
| O=C1CCCc2[nH]c3ccc(Cl)cc3c21 | % | -21.9 |
| CC(=O)[O][Ga]([Cl])[O]C(C)=O | % | 34.3 |
| CCCCNS(=O)(=O)c1cc(C(=O)O)cc(C(=O)O)c1 | % | -33.9 |
| N#C/C(=C/N1CCNC1=S)C(N)=O | % | 23.9 |
| CCOc1ccc(/C=C(\NC(=O)c2ccccc2)C(=O)Nc2ccccc2)cc1OC | % | -25.6 |
| Nc1ccn[nH]1 | % | -2.25 |
| Cc1ccc(N=C(Nc2ccc(C)cc2)C(c2ccccc2)c2ccccc2)cc1 | % | 7.65 |
| CCC(Nc1nncs1)Nc1nncs1 | % | -20.9 |
| CCC1c2c(cc(=O)[nH]c2O)C(=O)N1C (stereo not drawn) | % | -9.15 |
| CC(C)c1ccc(C(=O)OCCCc2ccccc2)cc1 | % | -10.7 |
| Cc1cc(=O)[nH]c(Nc2nc3ccccc3[nH]2)n1 | % | 20.8 |
| Cn1c(CC(O)c2nc3ccccc3n2C)nc2ccccc21 (stereo not drawn) | % | -8.75 |
| O=C(O)c1ccc(C(=O)C2CC(C(=O)O)CCC2S(=O)(=O)O)cc1 (stereo not drawn) | % | -30.6 |
| CCOC(=O)c1c[nH]c2ccc3c(nc(C)n3C)c2c1=O | % | 11.9 |
| CN1CCCC1 | % | 1.1 |
